Test system: Thalamus
assay-method-text: Drug uptake in anesthetized cynomolgus monkey brain thalamus after 95 mins postinjection
Assay type: ADME, organism-based, Macaca fascicularis
Set-up: unit not given here
run-conditions: in vivo
readout-name: Drug uptake
Please give only the number in your answer, with no unit.

Q: What Drug uptake appears in the records for this compound with Thalamus? O=C(OCCC[18F])C1C2CCC(CC1c1cccc(/C=C\I)c1)N2 (stereo not given)
Ans: 4.52

Q: Requested read-out Drug uptake, target or system Thalamus, entry O=C(OCC[18F])C1C2CCC(CC1c1cccc(/C=C\I)c1)N2 (stereo not given)
Ans: 3.91

Q: Enter reported Drug uptake observed with Thalamus for O=C(OCC[18F])C1C2CCC(CC1c1ccc(/C=C\I)cc1)N2 (stereo not given)
Ans: 4.15

Q: Find the measured Drug uptake: item O=C(OCC[18F])C1C2CCC(CC1c1cccc(/C=C\Br)c1)N2 (stereo not given) , target or system Thalamus.
Ans: 4.31

Q: Query the reported Drug uptake for Thalamus; item: O=C(OCCC[18F])C1C2CCC(CC1c1cccc(/C=C\Br)c1)N2 (stereo not given)
Ans: 5.16
